Entries annotated with measured growth
- Test system: ACHN renal
- ASSAY_TEXT: NCI-60 one-dose screen, 48 h (100 = growth as untreated, 0 = no growth, -100 = all killed)
- PROTOCOL_CONDITIONS: 10 µM unless noted
The panel holds about 83,000 compounds, 20% with a hit somewhere; the sample as a whole holds those more often.
Dear colleague, please return just the value in %, with no unit written.

Use these answered entries as a reference point.
O=C(/C=C/c1ccc(Cl)cc1)c1ccc(-n2cc(CN3CCN(c4cc5c(cc4F)c(=O)c(C(=O)O)cn5C4CC4)CC3)nn2)cc1	89.9
COc1cc2c(c(OC)c1OC)CCC(c1cccc(C(=O)Nc3ccc([N+](=O)[O-])cc3)c1)O2 (stereo not drawn)	40.7
CCN(CC)CCCNC(=O)c1c2c(n3ccccc13)C(=O)c1ncccc1C2=O	-34.5
CC1=C(C(=O)c2ccccc2)C(c2ccc3c(c2)OCO3)NC(=S)N1 (stereo not drawn)	45.5
CC1=NN(c2cccc(Cl)c2)C(=O)/C1=C\C=C\c1ccccc1	-51.3

Inquiry: Requested field: growth. Item: O=S(=O)(Nc1ccc(Br)cc1)c1ccc(-c2cnc(C3CC3)o2)cc1
Reply text: 30.8

Inquiry: Given Cc1ccc(NC(=O)c2ccc(Nc3ncnc4c3cnn4-c3cccc(F)c3)cc2)cc1 , state its recorded growth.
Reply text: 98.4

Inquiry: // query growth value for entry C[C@@H]1N=C(c2ccc(Cl)cc2Cl)Nc2nc3ccccn3c2C1=O
Reply text: 60.2

---

- Tested on: KM12 colon
- ASSAY_TEXT: NCI-60 one-dose screen, 48 h (100 = growth as untreated, 0 = no growth, -100 = all killed)
- PROTOCOL_CONDITIONS: 10 µM unless noted
This is part of a sample that, as a whole, favours compounds with a hit. Of some 83,000 tested, about 20% had one in any assay. The source made the active and inactive calls. How the source made its calls: active means growth percent below 10; inactive means the rest.
VALUE_TYPE: growth

C=CCNc1nc(O)c(/C=C2\C=Nc3ncccc32)s1	7.86% (active)
O=C(/C=C/c1ccco1)c1ccc(Nc2ccnc3cc(Cl)ccc23)cc1	80.2% (inactive)

Inquiry: // growth lookup, key: Cc1cccc(CN(Nc2ccccc2)c2ccccc2)n1
Reply text: 110% (inactive)

---

- Test system: COLO 205 colon
- ASSAY_TEXT: NCI-60 one-dose screen, 48 h
- PROTOCOL_CONDITIONS: 10 µM unless noted
This is part of a sample that, as a whole, favours compounds with a hit. Of some 83,000 tested, about 20% had one in any assay. Activity calls are given as the source filed them. How the source made its calls: active means growth percent below 10; inactive means the rest.
Could you please pick one outcome from this set? true = active, false = inactive

The following compounds have reported results that may help.
CCCNNC(=O)c1ccc(CNC(=O)/C=C/c2ccccc2)cc1	true
CSc1nc(CC(C)C)c(C#N)c(=O)n1C	false
CCCC[N+]1(C)CCN=C1Cc1ccccc1 (stereo unspecified)	false

Inquiry: I would be grateful if you could indicate the recorded call for CC(C)n1nc(-c2ccc3oc(N)nc3c2)c2c(N)ncnc21 .
Reply text: true

Inquiry: Which outcome was assigned to COc1cccc(C2C(C#N)=C(N)Oc3c2ccc2ccccc32)c1 (stereo unspecified) in this test?
Reply text: true

---

- Tested on: SN12C renal
- ASSAY_TEXT: NCI-60 one-dose screen, 48 h (100 = growth as untreated, 0 = no growth, -100 = all killed)
- PROTOCOL_CONDITIONS: 10 µM unless noted
The panel holds about 83,000 compounds, 20% with a hit somewhere; the sample as a whole holds those more often.
Class (by growth) -- bin A = under 40%, bin B = from 40% up to 90%, bin C = 90% and over

O=C1/C(=C/c2cccc(Br)c2)COc2ccc(O)c(O)c21	bin A

Inquiry: Which growth category applies to O=C1c2ccccc2C(=O)c2cc(Cn3c[n+](Cc4ccc5ccccc5c4)c4ccccc43)ccc21 here?
Reply text: bin B

Inquiry: Where would CN1CCN(Cn2nc(-c3cc(Cl)cc(Cl)c3Cl)oc2=S)CC1 land among the classes by reported growth?
Reply text: bin C

Inquiry: Form field 'band' for CN1CC(c2ccccc2)C(C(=O)c2ccc(Br)cc2)C12C(=O)Nc1ccccc12 (stereo not given)
Reply text: bin C

The reported numbers originate from PubChem BioAssay (NCI).
